Target chain: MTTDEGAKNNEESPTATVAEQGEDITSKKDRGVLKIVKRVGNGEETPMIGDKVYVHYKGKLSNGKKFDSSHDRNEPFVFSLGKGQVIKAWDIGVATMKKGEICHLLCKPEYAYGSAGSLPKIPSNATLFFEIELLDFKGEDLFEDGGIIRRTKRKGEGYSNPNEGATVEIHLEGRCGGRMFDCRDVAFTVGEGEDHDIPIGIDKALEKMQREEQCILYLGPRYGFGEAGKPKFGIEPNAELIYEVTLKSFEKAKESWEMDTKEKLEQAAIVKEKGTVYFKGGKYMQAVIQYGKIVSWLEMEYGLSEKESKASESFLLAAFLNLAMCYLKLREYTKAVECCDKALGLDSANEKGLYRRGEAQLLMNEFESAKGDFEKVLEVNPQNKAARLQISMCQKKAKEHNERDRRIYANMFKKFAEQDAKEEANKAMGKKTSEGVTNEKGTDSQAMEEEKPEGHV
MEASUREMENT KIND: pKi
Kindly note that pKi refers to -log10 of the concentration in mol/L and answer with the value alone.

Req: Requested read-out: pKi. Entry: COc1ccc(CC[C@@H](OC(=O)[C@@H]2CCCCN2C(=O)[C@H]2[C@@H]3CCCC[C@H]3CC[C@@H]2C)c2cccc(OCC(=O)O)c2)cc1OC
Resp: 6.31

Req: Also check COc1ccc(CC[C@@H](OC(=O)[C@@H]2CCCCN2C(=O)[C@@H]2CC=C[C@@H]3CCCC[C@H]32)c2cccc(OCC(=O)O)c2)cc1OC
Resp: 5.62

Req: Follow-up entry: COc1ccc(CCC(OC(=O)C2CCCCN2C(=O)[C@H]2[C@@H]3CCCC[C@H]3C=C[C@@H]2C)c2cccc(OCCN3CCOCC3)c2)cc1OC (single isomer, unassigned)
Resp: 5.72

Req: Now the compound COc1ccc(CC[C@@H](OC(=O)[C@@H]2CCCCN2C(=O)[C@@H]2CC(=O)C[C@@H]3CCC[C@H]32)c2cccc(OCC(=O)O)c2)cc1OC
Resp: 4.55

Req: Then what about the compound COc1ccc(CC[C@@H](OC(=O)[C@@H]2CCCCN2C(=O)[C@@H]2CCC(=O)[C@@H]3CCC[C@H]32)c2cccc(OCC(=O)O)c2)cc1OC ?
Resp: 5.51

Req: Next compound up: COc1ccc(CC[C@@H](OC(=O)[C@@H]2CCCCN2C(=O)[C@@H]2CCC[C@@H]3CCC[C@H]32)c2cccc(OCC(=O)O)c2)cc1OC
Resp: 5.59

Req: For COc1ccc(CCC(OC(=O)C2CCCCN2C(=O)[C@@H]2C[C@@H](O)[C@@H](O)[C@@H]3CCCC[C@H]32)c2cccc(OCCN3CCOCC3)c2)cc1OC (single isomer, unassigned) then?
Resp: 6.55

Req: Please give the result for COc1ccc(CCC(OC(=O)C2CCCCN2C(=O)[C@@H]2CC(=O)C[C@@H]3CCCC[C@H]32)c2cccc(OCCN3CCOCC3)c2)cc1OC (single isomer, unassigned) too.
Resp: 5.89

Req: Can you handle COc1ccc(CCC(OC(=O)C2CCCCN2C(=O)[C@H]2[C@@H]3CCCC[C@H]3C(=O)C[C@@H]2C)c2cccc(OCCN3CCOCC3)c2)cc1OC (single isomer, unassigned) next?
Resp: 6.48
